System: Yap1 mRNA
Test: Dose-dependent inhibition of human Yap1 in A-431 cells (Example 24, 11,000 cells per well, RTS36584, normalized to GAPDH)
Format: cell-based
Settings: 1 μM, free uptake, 48 hours, RTS36584, normalized to GAPDH
resultType: Yap1 mRNA, % UTC
Put down the number, then write its unit next to it.

substance	result
1198831 (CACTTTTACATTAGGA; chemically modified gapmer, further chemistry not given here) [compound 1198831]	83 % UTC
1076453 (GTAATATTGCAATCTG; 3-10-3 cEt gapmer, further chemistry not given here) [compound 1076453]	89 % UTC

Now for a further substance.
The value of Yap1 mRNA, % UTC measured for the substance 1197270 (TTAAAGTGTATGTCAG; cEt gapmer with 2'-OMe nucleoside, phosphorothioate, further chemistry not given here) [compound 1197270] turned out to be 99 % UTC
